These data points were gathered from patent US4623648A.

assay: Acute toxicity in rats and mice (overall ranges); settings: in vivo, ip; depending on species and sex
measurement_label: LD50

[Q] Which LD50 is listed for O=c1c2ccccc2oc2ncccc12 [1-azaxanthone] ?
[A] 400 to 600 mg/kg

====

test: Acute toxicity in mice; settings: mouse, in vivo, ip, female mice
measurement_label: LD50 (mg/kg)
Quick note: give the figure in mg/kg, leave out the unit.

[Q] Which LD50 is listed for `O=c1c2ccccc2oc2ncccc12` ?
[A] 600

====

experiment: Acute toxicity in rats and mice (overall ranges); settings: in vivo; oral; depending on species and sex
measurement_label: LD50

[Q] Which LD50 is listed for O=c1c2ccccc2oc2ncccc12 [1-azaxanthone] ?
[A] 600 to 2000 mg/kg

====

test: Solubility by the equilibrium (saturation) technique; format: physicochemical; conditions: aqueous buffer; buffer pH 7.4; 20-25° C.
measurement_label: solubility (µg/mL)
Quick note: give the figure in µg/mL, leave out the unit.

[Q] Which solubility is listed for `O=c1c2ccccc2oc2ncccc12` ?
[A] 60

====

test: Solubility by the equilibrium (saturation) technique; assay type: physicochemical; details: 0.1 N NaOH; 20-25° C.
measurement_label: solubility (µg/mL)
Quick note: give the figure in µg/mL, leave out the unit.

[Q] Which solubility is listed for O=c1c2ccccc2oc2ncccc12 [1-azaxanthone] ?
[A] 70

====

assay: Acute toxicity in rats; details: rat, in vivo, ip, female rats
measurement_label: LD50 (mg/kg)
Quick note: give the figure in mg/kg, leave out the unit.

[Q] Which LD50 is listed for `O=c1c2ccccc2oc2ncccc12` ?
[A] 420

====

assay: Solubility by the equilibrium (saturation) technique; format: physicochemical; details: organic solvent or mixture; dioxane; 20-25° C.
measurement_label: solubility (mg/mL)
Quick note: give the figure in mg/mL, leave out the unit.

[Q] Which solubility is listed for `O=c1c2ccccc2oc2ncccc12` ?
[A] 65

====

assay: Acute toxicity in rats; conditions: rat, in vivo, po; orally, male rats
measurement_label: LD50

[Q] Which LD50 is listed for `O=c1c2ccccc2oc2ncccc12` ?
[A] ~2000 mg/kg

====

experiment: Solubility by the equilibrium (saturation) technique; format: physicochemical; details: 0.1 N HCl; 20-25° C.
measurement_label: solubility (µg/mL)
Quick note: give the figure in µg/mL, leave out the unit.

[Q] Which solubility is listed for `O=c1c2ccccc2oc2ncccc12` ?
[A] 70

====

assay: Solubility by the equilibrium (saturation) technique; type: physicochemical; settings: organic solvent or mixture; ethanol; 20-25° C.
measurement_label: solubility (µg/mL)
Quick note: give the figure in µg/mL, leave out the unit.

[Q] Which solubility is listed for O=c1c2ccccc2oc2ncccc12 [1-azaxanthone] ?
[A] 6200

====

assay: Solubility by the equilibrium (saturation) technique; type: physicochemical; conditions: water; 20-25° C.
measurement_label: solubility (µg/mL)
Quick note: give the figure in µg/mL, leave out the unit.

[Q] Which solubility is listed for `O=c1c2ccccc2oc2ncccc12` ?
[A] 80

====

Experiment: Solubility by the equilibrium (saturation) technique
Type: physicochemical
Conditions: organic solvent or mixture; chloroform; 20-25° C.
Description: The solubilities of 1-azaxanthone in several solvents were determined at 20-25° C. by the equilibrium (saturation) technique, measuring the concentration spectrophotometrically at 335 nm or by high pressure liquid chromatography/spectrophotometry. The following values (in mg/ml) were obtained: water: 0.08; 0.1 N HCl: 0.07; 0.1 N NaOH: 0.07; buffer pH 7.4: 0.06; methanol: 7.6; ethanol: 6.2; propyleneglycol: 5.0; ethyl acetate: 20; chloroform: >50; dioxane: 65.
measurement_label: solubility

[Q] Which solubility is listed for O=c1c2ccccc2oc2ncccc12 [1-azaxanthone] ?
[A] > 50 mg/mL
